These data points were gathered from the supplement of paper PMC8975748.

Tested on: Saccharomyces cerevisiae BY4741 SeMeCo community
Assay: z-score of subpopulation abundance vs DMSO median, subpopulation auxotrophic for HL; higher = larger share of this subpopulation than in DMSO controls
Details: 10 µM; 24 h; SM minimal medium; subpopulation (auxotrophy): HL
Where a name gives a salt, the structure may show the parent alone.
Mark condition met for reported z-score of subpopulation abundance of -0.1 or greater; mark condition not met for anything smaller.

Exam item: decide whether the reported z-score of subpopulation abundance for O=C(O)c1cc(O)c2c(c1)[C@H]([C@H]1c3cc(C(=O)O)cc(O)c3C(=O)c3c(O[C@@H]4O[C@H](CO)[C@@H](O)[C@H](O)[C@H]4O)cccc31)c1cccc(O[C@@H]3O[C@H](CO)[C@@H](O)[C@H](O)[C@H]3O)c1C2=O [Sennoside A] is at least -0.1.
condition met

Exam item: decide whether the reported z-score of subpopulation abundance for CC(=O)C1C(=O)C=C(C)OC1=O (stereo not drawn) [Sodium dehydroacetate] is at least -0.1.
condition met

Exam item: decide whether the reported z-score of subpopulation abundance for CC1CCc2cc(F)cc3c(=O)c(C(=O)O)cn1c23 (stereo not drawn) [Flumequine] is at least -0.1.
condition not met

Exam item: decide whether the reported z-score of subpopulation abundance for CC(C)Cc1ccc(C(C)C(=O)O)cc1 (stereo not drawn) [Ibuprofen Lysine] is at least -0.1.
condition not met

Exam item: decide whether the reported z-score of subpopulation abundance for COc1ccnc(C[S+]([O-])c2nc3cc(-n4cccc4)ccc3[nH]2)c1C (stereo not drawn) [Ilaprazole] is at least -0.1.
condition met

Exam item: decide whether the reported z-score of subpopulation abundance for CCN1CCCC1CNC(=O)c1cc(S(N)(=O)=O)ccc1OC (stereo not drawn) [Sulpiride] is at least -0.1.
condition not met

Exam item: decide whether the reported z-score of subpopulation abundance for OC(Cn1cncn1)(Cn1cncn1)c1ccc(F)cc1F [Fluconazole] is at least -0.1.
condition not met

Exam item: decide whether the reported z-score of subpopulation abundance for CC1(C)S[C@@H]2[C@H](NC(=O)[C@H](N)c3ccccc3)C(=O)N2[C@H]1C(=O)OCOC(=O)[C@@H]1N2C(=O)C[C@H]2S(=O)(=O)C1(C)C [Sultamicillin] is at least -0.1.
condition met

Exam item: decide whether the reported z-score of subpopulation abundance for c1cnc2cc3c(cc2n1)[C@@H]1CNC[C@H]3C1 [Varenicline Tartrate] is at least -0.1.
condition met

Exam item: decide whether the reported z-score of subpopulation abundance for O=C(c1ccc(OCCN2CCCCC2)cc1)c1c(-c2ccc(O)cc2)sc2cc(O)ccc12 [Raloxifene] is at least -0.1.
condition met

Exam item: decide whether the reported z-score of subpopulation abundance for CCOC(=O)c1ccc(N)cc1 [Benzocaine hydrochloride] is at least -0.1.
condition met

Exam item: decide whether the reported z-score of subpopulation abundance for COc1cccc2c1C(=O)c1c(O)c3c(c(O)c1C2=O)C[C@@](O)(C(=O)CO)C[C@@H]3O[C@H]1C[C@H](N)[C@@H](O)[C@H](C)O1 [Epirubicin HCl] is at least -0.1.
condition met

Exam item: decide whether the reported z-score of subpopulation abundance for Cc1cccc(C)c1NC(=O)C1CCCCN1C (stereo not drawn) [Mepivacaine HCl] is at least -0.1.
condition not met

Exam item: decide whether the reported z-score of subpopulation abundance for Cc1ccc(Sc2ccccc2N2CCNCC2)c(C)c1 [Vortioxetine] is at least -0.1.
condition met

Exam item: decide whether the reported z-score of subpopulation abundance for COCCCN1CCC(NC(=O)c2cc(Cl)c(N)c3c2OCC3)CC1 [Prucalopride] is at least -0.1.
condition not met

Exam item: decide whether the reported z-score of subpopulation abundance for CC1(C)S[C@@H]2[C@H](NC(=O)Cc3ccccc3)C(=O)N2[C@H]1C(=O)O [Penicillin G Sodium] is at least -0.1.
condition not met

Exam item: decide whether the reported z-score of subpopulation abundance for CN(C)C(=O)COC(=O)Cc1ccc(OC(=O)c2ccc(NC(=N)N)cc2)cc1 [Camostat Mesilate] is at least -0.1.
condition not met

Exam item: decide whether the reported z-score of subpopulation abundance for CCN1CCN(c2cc3c(cc2F)c(=O)c(C(=O)O)cn3C2CC2)CC1 [Enrofloxacin] is at least -0.1.
condition not met
